experiment: Clearance in Sprague-Dawley CD rat at 1 mg/kg, iv and 1 mg/kg, po; type: ADME, organism-based; conditions: in vivo
Tag: 1.0 if measured clearance is not below 20 mL/min/kg, 0.0 if it is.

CS(=O)(=O)c1ccc2ncc(C(N)=O)c(Nc3cccc(Cl)c3F)c2c1: 0.0
COc1cc(Nc2c(C(N)=O)cnc3ccc(S(C)(=O)=O)cc23)ccc1F: 1.0
CS(=O)(=O)c1ccc2ncc(C(N)=O)c(Nc3cccc4c3CCO4)c2c1: 1.0
COc1cc(Nc2c(C(N)=O)cnc3c(C)cc(S(C)(=O)=O)cc23)ccc1F: 0.0
CS(=O)(=O)c1ccc2ncc(C(N)=O)c(Nc3cccc(C#N)c3)c2c1: 0.0
Cc1cc(S(C)(=O)=O)cc2c(Nc3cccc(C#N)c3)c(C(N)=O)cnc12: 0.0
COc1cccc(Nc2c(C(N)=O)cnc3ccc(S(C)(=O)=O)cc23)c1: 0.0
